# targetUnderTest: T1, Fusion protein of extracellular domain of cynomolgus monkey TIGIT and mouse IgG2a Fc fragment (cynomolgus … (cynomolgus monkey))
# T1 construct: The entry includes the signal peptide (limits not recoverable) and the mouse IgG2a Fc
# T1 sequence (chain, as listed by the source limits assumed): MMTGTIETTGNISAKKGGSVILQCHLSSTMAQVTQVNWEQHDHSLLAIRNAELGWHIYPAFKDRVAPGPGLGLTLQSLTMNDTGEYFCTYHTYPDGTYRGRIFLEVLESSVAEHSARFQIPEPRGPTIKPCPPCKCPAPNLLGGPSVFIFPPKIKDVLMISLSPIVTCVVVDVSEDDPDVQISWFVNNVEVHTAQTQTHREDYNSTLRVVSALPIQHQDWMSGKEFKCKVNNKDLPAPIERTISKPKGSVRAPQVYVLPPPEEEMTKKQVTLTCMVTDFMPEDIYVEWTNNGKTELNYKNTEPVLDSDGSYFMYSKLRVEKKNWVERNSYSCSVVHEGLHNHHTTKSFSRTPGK
# methodNotes: ELISA, cynomolgus monkey TIGIT ECD-mFc
Consider the following binders and their measured pEC50 readings.
Remember, pEC50 is on a log scale: it is -log10 of the molar concentration.

As a guide, the following entries are already answered.
TIGIT-070-H2L3 (antibody, V domains shown, Humanized anti-TIGIT antibody) VH: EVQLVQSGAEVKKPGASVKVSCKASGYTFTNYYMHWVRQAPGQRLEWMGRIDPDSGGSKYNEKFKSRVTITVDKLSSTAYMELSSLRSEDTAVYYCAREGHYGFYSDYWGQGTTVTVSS VL: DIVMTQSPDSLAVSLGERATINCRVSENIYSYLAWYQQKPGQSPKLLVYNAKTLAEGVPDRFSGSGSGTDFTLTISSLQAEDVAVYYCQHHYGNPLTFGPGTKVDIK : 10.92
TIGIT-006-H2L3 (antibody, V domains shown, Humanized anti-TIGIT antibody) VH: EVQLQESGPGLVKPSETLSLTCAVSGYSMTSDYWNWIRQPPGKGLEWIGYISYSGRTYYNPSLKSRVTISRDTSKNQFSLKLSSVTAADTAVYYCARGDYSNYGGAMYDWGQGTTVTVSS VL: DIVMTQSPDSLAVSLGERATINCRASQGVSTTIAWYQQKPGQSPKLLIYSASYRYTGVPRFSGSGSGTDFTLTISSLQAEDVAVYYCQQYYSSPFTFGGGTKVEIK : 7.61

Now look at this one.
Incoming: Reported pEC50, binder TIGIT-002-H3L2 (antibody, V domains shown, Humanized anti-TIGIT antibody) VH: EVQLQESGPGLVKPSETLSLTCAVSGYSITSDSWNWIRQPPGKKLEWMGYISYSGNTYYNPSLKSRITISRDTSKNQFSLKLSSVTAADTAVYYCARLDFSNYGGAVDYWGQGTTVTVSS VL: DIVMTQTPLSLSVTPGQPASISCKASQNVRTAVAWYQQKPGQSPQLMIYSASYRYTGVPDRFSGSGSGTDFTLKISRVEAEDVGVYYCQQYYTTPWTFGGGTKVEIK : ____
Outgoing: 10.66
